Each record here notes measured Response.
Molecular target: T1, recombinant human CD3 epsilon/gamma heterodimer (human, UniProt P07766 23-126; P09693 23-116)
T1 construct: Recombinant protein in solution (200-50 nM) in the Octet assay; also called hCD3 E/G
T1 sequence (P07766 23-126, chain 1 of 2): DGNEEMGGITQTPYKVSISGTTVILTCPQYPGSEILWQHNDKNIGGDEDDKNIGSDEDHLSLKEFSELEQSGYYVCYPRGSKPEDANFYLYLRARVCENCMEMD
T1 sequence (P09693 23-116, chain 2 of 2): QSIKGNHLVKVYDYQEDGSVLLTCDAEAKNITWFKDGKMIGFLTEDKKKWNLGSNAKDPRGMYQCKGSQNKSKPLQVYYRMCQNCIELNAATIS
Assay: Octet BLI, mAb on FAB2G sensor, hCD3 E/G 200-50 nM; R^2 0.99
Respond with the number and no other words.

Study these solved cases before continuing.
{"binder": "ABL-CD3-53 (antibody, V domains shown, Chimeric hybridoma mAb: human V, CH1, upper hinge; mouse middle hinge, CH2, CH3) VH: EVQLVESGGGLVKPGGSLRLSCAASGFTFSSYTMNWVRQAPGKGLEWVSSITTSSSYIYYADSVKGRFTISRDNAKNSLYLQMNSLRAEDTAVYYCARVTFDAFDIWGQGTMVTVSS VL: NFMLTQPHSVSESPGKTVTISCTRSSGSIASNYVQWYQQRPGSSPTTVIYEDNQRPSGVPDRFSGSIDSSSNSASLTISGLKTEDEADYYCQSYDSSNRVFGGGTKLTVL", "Response": 0.4}
{"binder": "ABL-CD3-10 (antibody, V domains shown, Chimeric hybridoma mAb: human V, CH1, upper hinge; mouse middle hinge, CH2, CH3) VH: QVQLQQSGPGLVKPSQTLSLTCAISGDSVSCNSVAWNWIRQSPSRGLEWLGRTYYRSKWHNEYAVSVKSRINIKPDTSKNQVSLQLKSVTPEDTAVYYCARERKWELFLDYWGQGTLVTVSS VL: NFMLTQPHSVSESPGKTVTISCTRSSGSIASNYVQWYQQRPGSSPTTMIYEDNQRPSGVPDRFSGSIDSSSNSASLTISGLKTEDEADYYCQSLDSSSVVFGGGTKLTVL", "Response": 0.46}
{"binder": "ABL-CD3-12 (antibody, V domains shown, Chimeric hybridoma mAb: human V, CH1, upper hinge; mouse middle hinge, CH2, CH3) VH: EVQLVESGGGLVKPGGSLRLSCAASGFTFSSYTMNWVRQAPGKGLEWVSSISRSSSYKYYADSVKGRFTISRDNAKNSLYLQMNSLRAEDTAVYYCAREPPTLGMDYWGQGTLVIVSS VL: NFMLTQPHSVSESPGKTVTISCTRSNGSITSNYVQWYQQRPGSSPTTVIYEDNQRPSGVPDRFSGSIDSSSNSASLTISGLKTEDEADYYCQSFDNSNRVFGEKTKLTVL", "Response": 1.14}

Would you kindly share the measured Response for ABL-CD3-28 (antibody, V domains shown, Chimeric hybridoma mAb: human V, CH1, upper hinge; mouse middle hinge, CH2, CH3) VH: QVQLQQSGPGLVKPSQTLSLTCAISGDSVSSNSVAWNWIRQSPSRGLEWLGRTYYRSKWYNECAGSVKSRITINPDTSKNQFSLQLNSVTPEDTAIYYCARERKWELFLDYWGQGTLVTVSS VL: NFMLTQPHSVSESPGKTVTISCTRSSGSIASNYVQWYQQRPGSSPTTVIYEDNQRPSGVPDRFSGSIDSSSNSASLTISGLKTEDEADYYCQSFDSSNVVFGGGTKLTVL ?
0.77

Would you kindly share the measured Response for ABL-CD3-7 (antibody, V domains shown, Chimeric hybridoma mAb: human V, CH1, upper hinge; mouse middle hinge, CH2, CH3) VH: EVQLVESGGGLVKPGGSLRLSCAASGFTFSRYSMNWVRQAPGKGLKWVSSISSSGSYKYYADSVKGRFTISRDNAKNSLYLQMNSLRAEDTAVYYCAREPPTLGMDYWGQGTLVTVSS VL: NFMLTQPHSVSESPGKTVTISCTRSSGSIASNYVQWYQQRPGSSPTTVIYEDNQRPSGVPDRFSGSIDSSSNSASLTISGLKTEDEADYYCQSFDNSNRVFGGGTKLTVL ?
0.81
